# EXPERIMENT DESCRIPTION: Inhibition of Saccharomyces cerevisiae LeuRs
ENDPOINT: IC50 (nM)
Answers are plain numbers, in nM.

Can you look up the measured IC50 of "OB1OCc2cc(F)ccc21" for me?
2100

----------
# EXPERIMENT DESCRIPTION: Inhibition of Saccharomyces cerevisiae IleRS
ENDPOINT: Ki (µM)
Give bare numbers, in µM.

Dear colleague, I am looking for the recorded Ki of the following compound: "C=C1C[C@H](N)[C@H](C(=O)O)C1"
1000

----------
# EXPERIMENT DESCRIPTION: Inhibition of Aspergillus fumigatus AGM1
ENDPOINT: pKi
Numbers only, as −log10 of the molar value.

State the recorded pKi for this entry: "Nc1ccc(O)c2c1C(=O)c1c(O)ccc(N)c1C2=O"
3.52

----------
# TARGET UNDER TEST: Mediator of RNA polymerase II transcription subunit 15 (Candida glabrata (strain ATCC 2001 / CBS 138 / JCM 3761 / NBRC 0622 /NRRL Y-65) (Yeast) (Torulopsis glabrata))
# Sequence (Q6FRS9 whole entry): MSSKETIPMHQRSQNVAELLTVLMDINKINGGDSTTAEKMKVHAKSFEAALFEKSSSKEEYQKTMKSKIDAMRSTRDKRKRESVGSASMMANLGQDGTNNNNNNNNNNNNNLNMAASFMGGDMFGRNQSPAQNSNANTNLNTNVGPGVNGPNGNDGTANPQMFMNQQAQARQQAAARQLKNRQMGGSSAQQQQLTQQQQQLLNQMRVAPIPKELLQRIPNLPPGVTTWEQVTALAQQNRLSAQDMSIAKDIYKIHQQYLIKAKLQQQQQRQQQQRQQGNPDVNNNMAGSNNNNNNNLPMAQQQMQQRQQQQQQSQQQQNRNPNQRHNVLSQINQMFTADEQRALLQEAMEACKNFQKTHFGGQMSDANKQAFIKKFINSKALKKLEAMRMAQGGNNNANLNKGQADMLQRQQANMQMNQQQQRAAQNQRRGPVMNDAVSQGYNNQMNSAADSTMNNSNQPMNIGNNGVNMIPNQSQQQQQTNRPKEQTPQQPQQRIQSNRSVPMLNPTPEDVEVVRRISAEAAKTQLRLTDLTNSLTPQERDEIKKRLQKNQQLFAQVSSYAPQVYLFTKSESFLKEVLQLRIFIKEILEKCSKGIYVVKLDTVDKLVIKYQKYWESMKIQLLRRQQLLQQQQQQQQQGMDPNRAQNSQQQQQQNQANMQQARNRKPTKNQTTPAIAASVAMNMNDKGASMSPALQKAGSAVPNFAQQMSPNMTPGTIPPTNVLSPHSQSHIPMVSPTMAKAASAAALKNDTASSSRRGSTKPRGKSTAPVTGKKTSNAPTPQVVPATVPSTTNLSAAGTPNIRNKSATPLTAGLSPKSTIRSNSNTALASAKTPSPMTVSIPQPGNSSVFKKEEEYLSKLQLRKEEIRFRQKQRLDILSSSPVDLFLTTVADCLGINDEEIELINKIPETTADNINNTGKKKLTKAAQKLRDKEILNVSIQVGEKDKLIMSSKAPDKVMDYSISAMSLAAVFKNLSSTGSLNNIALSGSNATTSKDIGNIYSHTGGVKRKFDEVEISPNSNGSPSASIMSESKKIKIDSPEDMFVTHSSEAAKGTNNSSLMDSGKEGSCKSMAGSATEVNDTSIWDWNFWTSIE
# EXPERIMENT DESCRIPTION: Binding affinity to Candida glabrata Gal11A KIX domain
ENDPOINT: pKd
One number for each entry, as −log10 of the molar value.

Dear colleague, I am looking for the recorded pKd of the following compound: "N#CCC(=O)NNC(=S)Nc1ccc(Cl)c(Cl)c1"
6.49
